assay: Plasma pharmacokinetics in mice after single intravenous cassette doses; conditions: mice, Cassette #2, single 18 mg/kg iv cassette dose (3 mg/kg/compound), 24 h

# molecule, Mean Conc. in plasma
rows = [
    ("CCOC(=O)c1ccc(NC(=O)N2CCC(Nc3nc(N[C@H]4CC[C@H](N)CC4)nc4c3ncn4C3CCCC3)CC2)cc1.Cl.Cl", "BLQ^a"),
    ("COc1ccc(OC(=O)N2CCC(Nc3nc(N[C@H]4CC[C@H](N)CC4)nc4c3ncn4C3CCCC3)CC2)cc1.Cl.Cl", "BLQ"),
    ("Cl.Cl.N[C@H]1CC[C@H](Nc2nc(NC3CCN(C(=O)Oc4ccc(Br)cc4)CC3)c3ncn(C4CCCC4)c3n2)CC1", "BLQ"),
    ("NC1CCC(Nc2nc(NCCCc3ccccc3)c3ncn(C4CCCC4)c3n2)CC1 (stereo not shown) [MDL 107167, reference compound]", "BLQ"),
]

====

experiment: Plasma pharmacokinetics in mice after single intravenous cassette doses; conditions: male, Hsd:ICR (CD-1), mouse, plasma, intravenous, 3 mg/kg, Mean Conc. in plasma, mice, Cassette #2, single 18 mg/kg iv cassette dose (3 mg/kg/compound), 0.25 h

# compound, concentration at 0.25 h, ng/mL
records = [
    ("NC1CCC(Nc2nc(NCCCc3ccccc3)c3ncn(C4CCCC4)c3n2)CC1 (stereo not shown) [MDL 107167, reference compound]", 317),
]

====

experiment: Red blood cell binding (RBC to plasma ratio), mouse whole blood; type: in vitro ADME; conditions: 30 minutes at 37° C., nominal 500 ng/ml, hematocrit 0.41

# chemicalStructure, Mean Red Blood Cell to Plasma Ratio
records = [
    ("COC(=O)c1ccccc1S(=O)(=O)N1CCC(Nc2nc(N[C@H]3CC[C@H](N)CC3)nc3c2ncn3C2CCCC2)CC1.Cl.Cl", 2.2),
    ("Cl.Cl.N[C@H]1CC[C@H](Nc2nc(NC3CCN(S(=O)(=O)c4ccc(F)cc4)CC3)c3ncn(C4CCCC4)c3n2)CC1", 3.0),
    ("Cl.Cl.N[C@H]1CC[C@H](Nc2nc(NC3CCN(C(=O)Nc4ccc(C(F)(F)F)cc4)CC3)c3ncn(C4CCCC4)c3n2)CC1", 3.4),
    ("Cl.Cl.N#Cc1ccc(S(=O)(=O)N2CCC(Nc3nc(N[C@H]4CC[C@H](N)CC4)nc4c3ncn4C3CCCC3)CC2)cc1", 2.4),
    ("Cl.Cl.N[C@H]1CC[C@H](Nc2nc(NC3CCN(C(=O)Oc4ccc([N+](=O)[O-])cc4)CC3)c3ncn(C4CCCC4)c3n2)CC1", 4.7),
]

====

assay: Plasma pharmacokinetics in mice after single intravenous cassette doses; conditions: male, Hsd:ICR (CD-1), mouse, plasma, intravenous, 3 mg/kg, Mean Conc. in plasma, mice, Cassette #4, single 15 mg/kg iv cassette dose (3 mg/kg/compound), 0.5 h

# compound, concentration at 0.5 h
rows = [
    ("NC1CCC(Nc2nc(NCCCc3ccccc3)c3ncn(C4CCCC4)c3n2)CC1 (stereo not shown) [MDL 107167, reference compound]", "325 ng/mL"),
]

====

target: cdk1/cyclin B (Homo sapiens, UniProt P06493); assay: Cyclin-dependent kinase assay, cdk1/cyclin B (Histone H1 substrate)
Sequence (P06493 whole entry): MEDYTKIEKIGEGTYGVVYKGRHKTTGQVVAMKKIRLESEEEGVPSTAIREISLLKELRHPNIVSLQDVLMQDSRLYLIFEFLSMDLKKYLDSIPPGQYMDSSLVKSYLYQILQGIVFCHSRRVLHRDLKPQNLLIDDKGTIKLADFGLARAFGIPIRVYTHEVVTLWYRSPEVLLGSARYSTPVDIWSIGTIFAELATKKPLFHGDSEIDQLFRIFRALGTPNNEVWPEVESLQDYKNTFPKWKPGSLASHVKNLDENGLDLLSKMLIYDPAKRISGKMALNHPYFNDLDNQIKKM
Sequence (P14635 whole entry partner): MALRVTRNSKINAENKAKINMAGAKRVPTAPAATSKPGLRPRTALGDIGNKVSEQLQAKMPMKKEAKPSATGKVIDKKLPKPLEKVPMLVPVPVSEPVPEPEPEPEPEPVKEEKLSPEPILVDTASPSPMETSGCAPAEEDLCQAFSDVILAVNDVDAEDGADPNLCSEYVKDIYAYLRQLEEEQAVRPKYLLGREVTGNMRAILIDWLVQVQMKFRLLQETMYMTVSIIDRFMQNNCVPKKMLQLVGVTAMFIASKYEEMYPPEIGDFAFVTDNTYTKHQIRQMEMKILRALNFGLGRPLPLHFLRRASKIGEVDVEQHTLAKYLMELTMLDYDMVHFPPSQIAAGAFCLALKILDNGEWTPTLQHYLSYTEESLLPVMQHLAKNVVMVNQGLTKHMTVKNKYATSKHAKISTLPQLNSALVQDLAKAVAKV
Structures can show the parent of a compound that is named as a salt.
measuredEndpoint: IC50 (nM)

# compound, measValue
rows = [
    ("CCCCc1ccc(C(=O)N2CCC(Nc3nc(N[C@H]4CC[C@H](N)CC4)nc4c3ncn4C3CCCC3)CC2)cc1", 89),
    ("N[C@H]1CC[C@H](Nc2nc(NC3CCN(C(=O)/C=C/c4ccccc4)CC3)c3ncn(C4CCCC4)c3n2)CC1 [Compound 62, dihydrochloride]", 25),
    ("NC1CCC(Nc2nc(NC3CCN(C(=O)[C@@H]4C[C@H]4c4ccccc4)CC3)c3ncn(C4CCCC4)c3n2)CC1 (mixture of isomers) [Compound 43, dihydrochloride]", 51),
]

====

experiment: Plasma pharmacokinetics in mice after single intravenous cassette doses; details: male, Hsd:ICR (CD-1), mouse, plasma, intravenous, 3 mg/kg, Mean Conc. in plasma, mice, Cassette #2, single 18 mg/kg iv cassette dose (3 mg/kg/compound), 8 h
measuredEndpoint: concentration at 8 h

# compound, measuredEndpoint, measValue
rows = [
    ("NC1CCC(Nc2nc(NCCCc3ccccc3)c3ncn(C4CCCC4)c3n2)CC1 (stereo not shown) [MDL 107167, reference compound]", "concentration at 8 h", "1.6 ng/mL"),
]

====

test: Plasma pharmacokinetics in mice after single intravenous cassette doses; conditions: male, Hsd:ICR (CD-1), mouse, plasma, intravenous, 3 mg/kg, Mean Conc. in plasma, mice, Cassette #3, single 15 mg/kg iv cassette dose (3 mg/kg/compound), 0.083 h

# molecule, concentration at 0.083 h
rows = [
    ("NC1CCC(Nc2nc(NCCCc3ccccc3)c3ncn(C4CCCC4)c3n2)CC1 (stereo not shown) [MDL 107167, reference compound]", "0.52 µg/mL"),
]

====

assay: Plasma pharmacokinetics in mice after single intravenous cassette doses; details: male, Hsd:ICR (CD-1), mouse, plasma, iv, 3 mg/kg, Cmax (highest measured value), mouse plasma, iv Cassette #4, 3 mg/kg/compound (15 mg/kg total dose)
measuredEndpoint: Cmax (ng/mL)

# molecule, measuredEndpoint, measValue
records = [
    ("NC1CCC(Nc2nc(NCCCc3ccccc3)c3ncn(C4CCCC4)c3n2)CC1 (stereo not shown) [MDL 107167, reference compound]", "Cmax", 567),
]

====

test: Plasma pharmacokinetics in mice after single intravenous cassette doses; conditions: male, Hsd:ICR (CD-1), mouse, plasma, iv, 3 mg/kg, t1/2, λz, mouse plasma, iv Cassette #2, 3 mg/kg/compound (18 mg/kg total dose)

# molecule, half-life
rows = [
    ("NC1CCC(Nc2nc(NCCCc3ccccc3)c3ncn(C4CCCC4)c3n2)CC1 (stereo not shown) [MDL 107167, reference compound]", "1.5 h"),
]

====

experiment: Plasma pharmacokinetics in mice after single intravenous cassette doses; settings: male, Hsd:ICR (CD-1), mouse, plasma, iv, 3 mg/kg, AUC0-∞, mouse plasma, iv Cassette #4, 3 mg/kg/compound (15 mg/kg total dose)
measuredEndpoint: AUC(0-inf)

# molecule, measValue
records = [
    ("NC1CCC(Nc2nc(NCCCc3ccccc3)c3ncn(C4CCCC4)c3n2)CC1 (stereo not shown) [MDL 107167, reference compound]", "627 ng·h/mL"),
]

====

assay: Plasma pharmacokinetics in mice after single intravenous cassette doses; settings: male, Hsd:ICR (CD-1), mouse, plasma, intravenous, 3 mg/kg, Mean Conc. in plasma, mice, Cassette #2, single 18 mg/kg iv cassette dose (3 mg/kg/compound), 1 h
measuredEndpoint: concentration at 1 h

# compound, measuredEndpoint, measValue
rows = [
    ("NC1CCC(Nc2nc(NCCCc3ccccc3)c3ncn(C4CCCC4)c3n2)CC1 (stereo not shown) [MDL 107167, reference compound]", "concentration at 1 h", "133 ng/mL"),
]

====

test: Plasma pharmacokinetics in mice after single intravenous cassette doses; settings: male, Hsd:ICR (CD-1), mouse, plasma, intravenous, 3 mg/kg, Mean Conc. in plasma, mice, Cassette #3, single 15 mg/kg iv cassette dose (3 mg/kg/compound), 0.5 h
measuredEndpoint: concentration at 0.5 h (ng/mL)

# compound, measValue
rows = [
    ("NC1CCC(Nc2nc(NCCCc3ccccc3)c3ncn(C4CCCC4)c3n2)CC1 (stereo not shown) [MDL 107167, reference compound]", 209),
]

====

assay: Plasma pharmacokinetics in mice after single intravenous cassette doses; details: male, Hsd:ICR (CD-1), mouse, plasma, intravenous, 3 mg/kg, Mean Conc. in plasma, mice, Cassette #4, single 15 mg/kg iv cassette dose (3 mg/kg/compound), 1 h

# molecule, concentration at 1 h, ng/mL
rows = [
    ("NC1CCC(Nc2nc(NCCCc3ccccc3)c3ncn(C4CCCC4)c3n2)CC1 (stereo not shown) [MDL 107167, reference compound]", 145),
]

====

target: cdk4/cyclin D1 (Homo sapiens, UniProt P11802); test: Cyclin-dependent kinase assay, cdk4/cyclin D1 (GST-pRb substrate); assay type: biochemical; conditions: inhibition of cyclin D1/CDK 4 enzyme activity
Sequence (P11802 whole entry): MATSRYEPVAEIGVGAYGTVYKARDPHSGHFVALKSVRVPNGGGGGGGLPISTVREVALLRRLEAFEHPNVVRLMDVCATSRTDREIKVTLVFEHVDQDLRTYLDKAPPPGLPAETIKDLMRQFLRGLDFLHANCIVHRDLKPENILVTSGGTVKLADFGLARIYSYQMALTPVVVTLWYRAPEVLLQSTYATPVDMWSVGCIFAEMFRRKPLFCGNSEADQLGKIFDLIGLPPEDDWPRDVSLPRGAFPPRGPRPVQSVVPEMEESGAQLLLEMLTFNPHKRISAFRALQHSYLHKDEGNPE
Sequence (P24385 whole entry partner): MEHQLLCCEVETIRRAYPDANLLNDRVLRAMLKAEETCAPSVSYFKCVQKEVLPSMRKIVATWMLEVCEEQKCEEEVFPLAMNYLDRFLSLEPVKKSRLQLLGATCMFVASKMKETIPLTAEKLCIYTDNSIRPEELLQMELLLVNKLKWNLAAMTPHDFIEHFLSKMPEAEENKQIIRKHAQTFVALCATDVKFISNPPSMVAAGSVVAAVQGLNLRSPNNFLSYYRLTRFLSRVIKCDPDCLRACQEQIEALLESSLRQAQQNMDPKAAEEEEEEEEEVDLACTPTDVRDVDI
pIC50: −log10 of the molar value. Where a name gives a salt, the structure may show the parent alone.
measuredEndpoint: pIC50

# molecule, testTarget, measuredEndpoint, valueOperator, measValue
rows = [
    ("N[C@H]1CC[C@H](Nc2nc(NC3CCN(S(=O)(=O)c4cccs4)CC3)c3ncn(C4CCCC4)c3n2)CC1 [Compound 128, dihydrochloride]", "cdk4/cyclin D1 (Homo sapiens, UniProt P11802)", "pIC50", "=", 8.30),
    ("N[C@H]1CC[C@H](Nc2nc(NC3CCN(C(=O)/C=C/c4cccc(C(F)(F)F)c4)CC3)c3ncn(C4CCCC4)c3n2)CC1 [Compound 44, dihydrochloride]", "cdk4/cyclin D1 (Homo sapiens, UniProt P11802)", "pIC50", "=", 5.83),
    ("CCCCc1ccc(C(=O)N2CCC(Nc3nc(N[C@H]4CC[C@H](N)CC4)nc4c3ncn4C3CCCC3)CC2)cc1 [Compound 21]", "cdk4/cyclin D1 (Homo sapiens, UniProt P11802)", "pIC50", "=", 6.32),
    ("COc1cc(COC(=O)N2CCC(Nc3nc(N[C@H]4CC[C@H](N)CC4)nc4c3ncn4C3CCCC3)CC2)c([N+](=O)[O-])cc1OC [Compound 101, dihydrochloride]", "cdk4/cyclin D1 (Homo sapiens, UniProt P11802)", "pIC50", "<", 5.00),
    ("C=CCCOC(=O)N1CCC(Nc2nc(N[C@H]3CC[C@H](N)CC3)nc3c2ncn3C2CCCC2)CC1 [Compound 100, dihydrochloride]", "cdk4/cyclin D1 (Homo sapiens, UniProt P11802)", "pIC50", "<", 5.00),
    ("N[C@H]1CC[C@H](Nc2nc(NC3CCN(C(=O)/C=C/c4ccccc4)CC3)c3ncn(C4CCCC4)c3n2)CC1 [Compound 62, dihydrochloride]", "cdk4/cyclin D1 (Homo sapiens, UniProt P11802)", "pIC50", "=", 6.78),
    ("NC1CCC(Nc2nc(NC3CCN(C(=O)[C@@H]4C[C@H]4c4ccccc4)CC3)c3ncn(C4CCCC4)c3n2)CC1 (mixture of isomers) [Compound 43, dihydrochloride]", "cdk4/cyclin D1 (Homo sapiens, UniProt P11802)", "pIC50", "=", 6.53),
    ("CC(C)=CC(=O)N1CCC(Nc2nc(N[C@H]3CC[C@H](N)CC3)nc3c2ncn3C2CCCC2)CC1 [Compound 30, dihydrochloride]", "cdk4/cyclin D1 (Homo sapiens, UniProt P11802)", "pIC50", "=", 6.17),
]
